Total Cell Count reference
# Test system: HEK-293T
# test.summary: Multiplex assay against HEK293T
# Format: toxicity, cell-based
# applied.conditions: human, 24 h, 1 µM, compound concentration 1 uM, replicate 1
Just the number, please.

See these solved cases before continuing.
molecule="Cl.Clc1ccc2nsnc2c1NC1=NCCN1 [TIZANIDINE HYDROCHLORIDE]" readout_value=597
molecule="Cc1ccccc1C(=O)Nc1ccc(C(=O)N2CCCC(N(C)C)c3ccccc32)cc1.Cl (stereo unspecified)" readout_value=727

**Query** Supply Total Cell Count value. Item: CCNC1(C(N)=O)CCN(c2ncnc3c2nc(-c2ccccc2Cl)n3-c2ccc(Cl)cc2)CC1
**Result** 474

**Query** For the molecule CSCC[C@H](NC=O)C(=O)N[C@@H](CC(C)C)C(=O)N[C@@H](Cc1ccccc1)C(=O)O , report Total Cell Count.
**Result** 679

**Query** Fill in Total Cell Count for record COc1c(C)cc(NC(=O)c2nn(Cc3ccc(F)cc3)c3c2CN(C(=O)c2ccc[nH]2)C[C@]3(C)C(N)=O)cc1C
**Result** 574

**Query** Entry CC(=O)NCCc1c(Cc2ccccc2)[nH]c2ccccc12 needs its Total Cell Count filled in; supply it.
**Result** 546

**Query** Tell me Total Cell Count reported for O=S(=O)(c1ccccc1)c1cnc2c(N3CCNCC3)cccc2c1 [INTEPIRDINE]
**Result** 530

###

// reported Population Tubulin-Different-Phenotype (%) per item
# Tested on: Fibroblast
# test.summary: Multiplex assay against human fibroblast
# Assay type: toxicity, cell-based
# applied.conditions: 48 h, 10 µM, compound concentration 10 uM, replicate 2
Form entry: value (%) — number only.

# annotated cases, reported Population Tubulin-Different-Phenotype (%) shown
compound=CC[C@H]1OC(=O)[C@H](C)[C@@H](O[C@H]2C[C@@](C)(OC)[C@@H](O)[C@H](C)O2)[C@H](C)[C@@H](O[C@@H]2O[C@H](C)C[C@H](N(C)C)[C@H]2O)[C@@]2(C)CC(C)=C(O2)[C@H](C)[C@@H](O)[C@]1(C)O readout_value=78
compound=CN(C)c1ccnc2sc3c(=O)n(N4CCCCCC4)cnc3c12 readout_value=86
compound="O=C(NCC(=O)N1CC[C@H](N[C@H]2CC[C@@](O)(c3ccc(-c4ncccn4)cn3)CC2)C1)c1cccc(C(F)(F)F)c1 [PF-4136309]" readout_value=54
compound="Cc1ccc(C(C)(O)c2nc3ccccc3s2)c(C)c1 (stereo unspecified)" readout_value=64
compound="CN1CCN2c3ncccc3Cc3ccccc3C2C1 (stereo unspecified) [MIRTAZAPINE]" readout_value=60

Turning now to a further record.
**Query** Jot down Population Tubulin-Different-Phenotype (%) (Fibroblast) of CC1(COc2ccc3c(c2)ncn3-c2ccc3cccc(N4CCC(N)CC4)c3n2)COC1 [CRENOLANIB] .
**Result** 27

###

# Test system: U2OS
# test.summary: Multiplex assay against U2OS
# Format: toxicity, cell-based
# applied.conditions: human, 12 h, 1 µM, compound concentration 1 uM, replicate 1
Population Membrane Permeable-Phenotype (%) reference
Respond with the bare value in %.

For orientation, consider the following solved cases.
molecule="Cl.Clc1ccc2nsnc2c1NC1=NCCN1 [TIZANIDINE HYDROCHLORIDE]" readout_value=6
molecule="Cc1ccc(C(C)(O)c2nc3ccccc3s2)c(C)c1 (stereo not drawn)" readout_value=4

Turning now to a further molecule:
**Query** Would you please give the reported Population Membrane Permeable-Phenotype (%) of O=C1COc2nccc(-c3ccccc3F)c2CN1Cc1cc(C(F)(F)F)cc(C(F)(F)F)c1 with U2OS?
**Result** 6

Origin of measurements: ChEMBL document CHEMBL5058577
